Assay: Single dose escalation and multiple dosing pharmacokinetic study of LipoCol Forte
Conditions: human, plasma, oral, 1 LipoCol Forte capsule, T1/2, healthy subjects, fed, multiple doses one LipoCol Forte capsule BID for 5 days; mean ± SD, n = 14
Reported half-life values are given for each entry in this list.

- Compound: "CC[C@H](C)C(=O)O[C@H]1C[C@@H](C)C=C2C=C[C@H](C)[C@H](CC[C@@H](O)C[C@@H](O)CC(=O)O)[C@H]21 [Lovastatin acid, lovastatin acid]"
  Value Units: "h"
  half-life: 1.92
- Compound: "CC[C@H](C)C(=O)O[C@H]1C[C@@H](C)C=C2C=C[C@H](C)[C@H](CC[C@@H]3C[C@@H](O)CC(=O)O3)[C@H]21 [Pure lovastatin, lovastatin, reference compound]"
  Value Units: "h"
  half-life: 1.93

* * *

Reported Cmax values are given for each entry in this list.
Experiment: Single dose escalation and multiple dosing pharmacokinetic study of LipoCol Forte
Settings: human, plasma, oral, 1 LipoCol Forte capsule, Cmax, healthy subjects, fed, multiple doses one LipoCol Forte capsule BID for 5 days; mean ± SD, n = 14
Quantity: Cmax (ng/mL)

- Compound: "CC[C@H](C)C(=O)O[C@H]1C[C@@H](C)C=C2C=C[C@H](C)[C@H](CC[C@@H](O)C[C@@H](O)CC(=O)O)[C@H]21"
  Quantity: "Cmax"
  Value Units: "ng/mL"
  Quantitative Readout: 8.04
- Compound: "CC[C@H](C)C(=O)O[C@H]1C[C@@H](C)C=C2C=C[C@H](C)[C@H](CC[C@@H]3C[C@@H](O)CC(=O)O3)[C@H]21 [Pure lovastatin, lovastatin, reference compound]"
  Quantity: "Cmax"
  Value Units: "ng/mL"
  Quantitative Readout: 1.41

* * *

Assay: Single dose escalation and multiple dosing pharmacokinetic study of LipoCol Forte
Details: human, plasma, oral, 2 LipoCol Forte capsules, AUC0–inf, healthy subjects, fed, single dose two LipoCol Forte capsules; mean ± SD, n = 14

- Compound: "CC[C@H](C)C(=O)O[C@H]1C[C@@H](C)C=C2C=C[C@H](C)[C@H](CC[C@@H](O)C[C@@H](O)CC(=O)O)[C@H]21 [Lovastatin acid, lovastatin acid]"
  AUC(0-inf): "85.4 ng·h/mL"
- Compound: "CC[C@H](C)C(=O)O[C@H]1C[C@@H](C)C=C2C=C[C@H](C)[C@H](CC[C@@H]3C[C@@H](O)CC(=O)O3)[C@H]21 [Pure lovastatin, lovastatin, reference compound]"
  AUC(0-inf): "14.4 ng·h/mL"

* * *

Molecular target: CYP2B6 (Homo sapiens)
Construct: Human liver microsomes (UltraPool HLM 150) were purchased from BD Biosciences; tissue BD Biosciences UltraPool HLM 150; host or cells: pooled human liver microsomes
Sequence (P20813 1-491): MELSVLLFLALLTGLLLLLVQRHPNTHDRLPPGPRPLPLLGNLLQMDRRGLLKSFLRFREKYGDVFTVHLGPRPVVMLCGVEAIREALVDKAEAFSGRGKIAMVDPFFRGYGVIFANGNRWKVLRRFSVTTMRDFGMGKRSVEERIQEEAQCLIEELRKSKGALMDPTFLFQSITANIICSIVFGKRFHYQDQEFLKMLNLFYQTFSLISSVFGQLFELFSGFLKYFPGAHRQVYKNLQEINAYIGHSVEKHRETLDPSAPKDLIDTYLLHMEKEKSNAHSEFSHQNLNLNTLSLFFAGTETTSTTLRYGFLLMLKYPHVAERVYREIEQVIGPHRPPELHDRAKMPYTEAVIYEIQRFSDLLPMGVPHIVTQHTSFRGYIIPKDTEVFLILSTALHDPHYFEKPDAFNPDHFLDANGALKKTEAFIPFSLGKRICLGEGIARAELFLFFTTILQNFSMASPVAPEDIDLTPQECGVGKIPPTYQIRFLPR
Test: Inhibition of CYP2B6 activity in human liver microsomes (hydroxybupropion/bupropion ratio)
Assay type: biochemical
Details: human, human liver microsomes, probe bupropion

- Molecule: "CC[C@H](C)C(=O)O[C@H]1C[C@@H](C)C=C2C=C[C@H](C)[C@H](CC[C@@H]3C[C@@H](O)CC(=O)O3)[C@H]21 [Pure lovastatin, lovastatin, reference compound]"
  Target Of Assay: "CYP2B6 (Homo sapiens)"
  IC50 at 20 min: "9 to 16 µM"
